# System: rodent lifetime carcinogenesis bioassay, tumor incidence TD50
# assayDetails: carcinogenic potency in animals, long-term in vivo studies, CPDB compilation (AID 1745844)
# cond: rat; strain Charles River CD (Sprague-Dawley); both sexes; inhaled; site: nasal cavity; lesion: several types; types named in the paper; dosed 53 weeks; study length 104 weeks
endpointName: TD50

Per the records, this compound ( CN(C)P(=O)(N(C)C)N(C)C ) has TD50 equal to 0.0345 mg/kg/day

* * *

# System: rodent lifetime carcinogenesis bioassay, tumor incidence TD50
# assayDetails: carcinogenic potency in animals, long-term in vivo studies, CPDB compilation (AID 1745844)
# cond: mouse; strain Swiss; males; by gavage; site: preputial gland; lesion: squamous-cell papilloma; dosed 52 weeks; study length 128 weeks
endpointName: TD50 (mg/kg/day)
# number only, unit mg/kg/day dropped from output

response.value for CCCCC/C=N/N(C)C=O (field: TD50) = 93.3

* * *

# Tested on: rodent lifetime carcinogenesis bioassay, tumor incidence TD50
# assayDetails: carcinogenic potency in animals, long-term in vivo studies, CPDB compilation (AID 1745844)
# cond: mouse; strain B6C3F1; males; by gavage; site: forestomach; lesion: squamous-cell carcinoma; dosed 104 weeks; study length 107 weeks
endpointName: TD50

c1ccc(C2CO2)cc1 (stereo unspecified) yielded TD50 of 475 mg/kg/day

* * *

# Test system: rodent lifetime carcinogenesis bioassay, tumor incidence TD50
# assayDetails: carcinogenic potency in animals, long-term in vivo studies, CPDB compilation (AID 1745844)
# cond: rat; strain Sprague-Dawley; females; inhaled; site: Zymbal's gland; lesion: carcinoma; dosed 52 weeks; study length 139 weeks
endpointName: TD50 (mg/kg/day)
Give your result in mg/kg/day as a bare value.

Noted for C=CCl : its TD50 reads 1070

* * *

# Tested on: rodent lifetime carcinogenesis bioassay, tumor incidence TD50
# assayDetails: carcinogenic potency in animals, long-term in vivo studies, CPDB compilation (AID 1745844)
# cond: mouse; strain B6C3F1; females; in feed; site: liver; lesion: hepatocellular carcinoma; dosed 101 weeks; study length 104 weeks
endpointName: TD50

Input CCC1(c2ccccc2)C(=O)NCNC1=O . Output TD50: 97.3 mg/kg/day

* * *

# System: rodent lifetime carcinogenesis bioassay, tumor incidence TD50
# assayDetails: carcinogenic potency in animals, long-term in vivo studies, CPDB compilation (AID 1745844)
# cond: mouse; strain B6C3F1; males; in feed; site: liver; lesion: hepatocellular adenoma + hepatocellular carcinoma + neoplastic nodule; dosed 102 weeks; study length 102 weeks
endpointName: TD50 (mg/kg/day)
Return type: number; implicit unit mg/kg/day.

Cc1ccccc1N :: 12700

API: the following record is the query input.
// TD50 value for C[N+](C)(C)CCCl : 599

* * *

# Tested on: rodent lifetime carcinogenesis bioassay, tumor incidence TD50
# assayDetails: carcinogenic potency in animals, long-term in vivo studies, CPDB compilation (AID 1745844)
# cond: mouse; strain Swiss albino; females; in drinking water; site: liver; lesion: several types; types named in the paper; dosed 93 weeks; study length 93 weeks
endpointName: TD50

Record for NNCCc1ccccc1 under target or system rodent lifetime carcinogenesis bioassay, tumor incidence TD50: TD50 reported as 278 mg/kg/day

* * *

# Tested on: rodent lifetime carcinogenesis bioassay, tumor incidence TD50
# assayDetails: carcinogenic potency in animals, long-term in vivo studies, CPDB compilation (AID 1745844)
# cond: rat; strain Wistar; males; inhaled; site: lung; lesion: adenocarcinoma; dosed 26 weeks; study length 130 weeks
endpointName: TD50 (mg/kg/day)
# value in mg/kg/day; strip the unit string

Measured TD50 of [Cl][Cd][Cl] : 0.0294

* * *

# Tested on: rodent lifetime carcinogenesis bioassay, tumor incidence TD50
# assayDetails: carcinogenic potency in animals, long-term in vivo studies, CPDB compilation (AID 1745844)
# cond: rat; strain Fischer 344; males; by gavage; site: liver; lesion: hepatocellular adenoma + hepatocellular carcinoma + neoplastic nodule; dosed 104 weeks; study length 105 weeks
endpointName: TD50 (mg/kg/day)
State just the number; it will be interpreted in mg/kg/day.

The molecule ClC(Br)Br showed TD50 equal to 150

Data point: COP(=O)(OC)OC ; TD50 = 485

# molecule CCCC(Cl)CCCC(Cl)CCC(Cl)CCC(Cl)CCC(Cl)CCCC(Cl)CCC (stereo not drawn) ; its TD50 = 123

* * *

# System: rodent lifetime carcinogenesis bioassay, tumor incidence TD50
# assayDetails: carcinogenic potency in animals, long-term in vivo studies, CPDB compilation (AID 1745844)
# cond: hamster; strain Syrian Golden; females; by gavage; site: pancreatic duct; lesion: carcinoma; dosed 50 weeks; study length 65 weeks
endpointName: TD50 (mg/kg/day)
Numbers only; they are read as mg/kg/day.

// TD50 value for O=NC(=O)CCNCCO : 3.72

* * *

# Test system: rodent lifetime carcinogenesis bioassay, tumor incidence TD50
# assayDetails: carcinogenic potency in animals, long-term in vivo studies, CPDB compilation (AID 1745844)
# cond: rat; strain Fischer 344; females; in feed; site: urinary bladder; lesion: transitional-cell papilloma; dosed 103 weeks; study length 104 weeks
endpointName: TD50

Record for Nc1ccc(N)c2c1C(=O)c1c(N)ccc(N)c1C2=O under target or system rodent lifetime carcinogenesis bioassay, tumor incidence TD50: TD50 reported as 317 mg/kg/day

// returns TD50 for Nc1c(Br)cc(Br)c2c1C(=O)c1ccccc1C2=O with rodent lifetime carcinogenesis bioassay, tumor incidence TD50; value = 782 mg/kg/day

* * *

# Tested on: rodent lifetime carcinogenesis bioassay, tumor incidence TD50
# assayDetails: carcinogenic potency in animals, long-term in vivo studies, CPDB compilation (AID 1745844)
# cond: rat; strain Fischer 344; males; in feed; site: liver; lesion: hepatocellular carcinoma; dosed 79 weeks; study length 79 weeks
endpointName: TD50 (mg/kg/day)
I only need the number, in mg/kg/day, no unit after it.

For CC(C)CCCCCCOC(=O)c1ccccc1C(=O)OCCCCCCC(C)C the compound record lists TD50 as 2750

* * *

# Test system: rodent lifetime carcinogenesis bioassay, tumor incidence TD50
# assayDetails: carcinogenic potency in animals, long-term in vivo studies, CPDB compilation (AID 1745844)
# cond: mouse; strain B6C3F1; females; in feed; site: forestomach; lesion: squamous-cell carcinoma + squamous-cell papilloma; dosed 104 weeks; study length 104 weeks
endpointName: TD50

Briefly, TD50 measured for Nc1c(Br)cc(Br)c2c1C(=O)c1ccccc1C2=O : 1230 mg/kg/day

* * *

# System: rodent lifetime carcinogenesis bioassay, tumor incidence TD50
# assayDetails: carcinogenic potency in animals, long-term in vivo studies, CPDB compilation (AID 1745844)
# cond: mouse; strain Not specified; both sexes; by gavage; site: any site (literature study); lesion: several types; types named in the paper; dosed 52 weeks; study length 52 weeks
Recorded measurements of TD50, one per entry

Entry COc1cc(C=NNC(=O)c2ccncc2)ccc1O — recorded TD50 = 27.4 mg/kg/day

Summary for this compound, NNC(=O)c1ccncc1 : TD50 is 14.1 mg/kg/day

* * *

# Tested on: rodent lifetime carcinogenesis bioassay, tumor incidence TD50
# assayDetails: carcinogenic potency in animals, long-term in vivo studies, CPDB compilation (AID 1745844)
# cond: rat; strain Wistar; males; inhaled; site: extrahepatic tissue; lesion: angioma; dosed 52 weeks; study length 125 weeks
endpointName: TD50 (mg/kg/day)
Write the answer as a number in mg/kg/day, unit excluded.

For this molecule ( C=CCl ), measured TD50 is 72700

* * *

# Test system: rodent lifetime carcinogenesis bioassay, tumor incidence TD50
# assayDetails: carcinogenic potency in animals, long-term in vivo studies, CPDB compilation (AID 1745844)
# cond: rat; strain Fischer 344; males; by gavage; site: kidney; lesion: adenoma + tubule adenoma + tubule carcinoma; dosed 103 weeks; study length 105 weeks
endpointName: TD50

The recorded TD50 for ClC(Cl)(Cl)C(Cl)(Cl)Cl is 55.4 mg/kg/day

* * *

# Tested on: rodent lifetime carcinogenesis bioassay, tumor incidence TD50
# assayDetails: carcinogenic potency in animals, long-term in vivo studies, CPDB compilation (AID 1745844)
# cond: rat; strain Wistar; females; in feed; site: liver; lesion: hepatocellular carcinoma; dosed 52 weeks; study length 52 weeks
endpointName: TD50 (mg/kg/day)
Please give a number only; it is taken to be in mg/kg/day.

// recorded TD50 for O=P(O)(OCC(Br)CBr)OCC(Br)CBr (stereo unspecified) : 35.1

* * *

# System: rodent lifetime carcinogenesis bioassay, tumor incidence TD50
# assayDetails: carcinogenic potency in animals, long-term in vivo studies, CPDB compilation (AID 1745844)
# cond: mouse; strain NZO/BlGd; males; in drinking water; site: stomach, glandular; lesion: several types; types named in the paper; dosed 32 weeks; study length 60 weeks
endpointName: TD50

Tested on rodent lifetime carcinogenesis bioassay, tumor incidence TD50: O=NN1CCCCCC1 . Observed TD50: 3.23 mg/kg/day

* * *

# Tested on: rodent lifetime carcinogenesis bioassay, tumor incidence TD50
# assayDetails: carcinogenic potency in animals, long-term in vivo studies, CPDB compilation (AID 1745844)
# cond: rat; strain Han:WIST; males; inhaled; site: kidney; lesion: tubular-cell adenocarcinoma; dosed 78 weeks; study length 156 weeks
Activity calls are given as the source filed them. No rule for the calls is given here.
endpointName: TD50

Hey, rodent lifetime carcinogenesis bioassay, tumor incidence TD50 data for ClC=C(Cl)Cl : TD50 came out at 3850 mg/kg/day (inactive)
